meta.source: paper PMC12217109

Item-by-item account of IC50
Tested on: U251
Assay: NCI-60 cytotoxicity screen
Type: cell-based
Conditions: Homo sapiens, U-251; NCI-60, 48 h, CNS
MEASUREMENT KIND: IC50 (nM)

>>> val("C=C(CN1CCN(c2ccc(C(F)(F)F)cc2)CC1)c1ccc(C(=O)Nc2ccccc2N)cc1 [Compound 5]")
6250
>>> val("Nc1ccccc1NC(=O)c1ccc(CNC(=O)OCc2cccnc2)cc1 [Compound 1, Entinostat, reference compound]")
2030
>>> val("C=C(CN1CCN(c2ccccc2C(F)(F)F)CC1)c1ccc(C(=O)Nc2ccccc2N)cc1 [Compound 3]")
4630
>>> val("C=C(CN1CCN(c2ccccn2)CC1)c1ccc(C(=O)Nc2ccccc2N)cc1 [Compound 6]")
1480
>>> val("C=C(CN1CCN(c2cccc(C(F)(F)F)n2)CC1)c1ccc(C(=O)Nc2ccccc2N)cc1 [Compound 7]")
1160
>>> val("C=C(CN1CCN(c2cccc(C(F)(F)F)c2)CC1)c1ccc(C(=O)Nc2ccccc2N)cc1 [Compound 4]")
1170
